Below: a set of entries, each annotated with reported AC50 for growth inhibition (log10 M).
System: SB.mhdgc-1
Test summary: AC50 for growth inhibition (viability) (log10 M); higher = less potent
Test parameters: SB.mhdgc-1 (hereditary c.1380delA CDH1 gastric cancer)
Counter-ions that a name gives are not always drawn.
Keep the answer to the number alone.

Worked cases, AC50 for growth inhibition (log10 M) given:
CN1CCN(CCCN2c3ccccc3Sc3ccc(C(F)(F)F)cc32)CC1 [Stelazine trifluoperzine]: -5.63
Cc1ccc(NC(=O)c2cccc(N(C)C)c2)cc1NC(=O)c1ccc(O)cc1: -6.48

Quickly give me recorded AC50 for growth inhibition (log10 M) for C=C(C)[C@H]1Cc2c(ccc3c2O[C@@H]2COc4cc(OC)c(OC)cc4[C@@H]2C3=O)O1 [Rotenone]
-5.38

Quickly give me recorded AC50 for growth inhibition (log10 M) for Cn1cc(CNCC2CCN(c3ncc(C(=O)NO)cn3)CC2)c2ccccc21 [Quisinostat hydrochloride]
-6.73

Quickly give me recorded AC50 for growth inhibition (log10 M) for Nc1nc(F)nc2c1ncn2[C@@H]1O[C@H](COP(=O)(O)O)[C@@H](O)[C@@H]1O [Fludarabine phosphate]
-5.13

Quickly give me recorded AC50 for growth inhibition (log10 M) for CC1(C)CC(=O)c2c(C(F)(F)F)nn(-c3ccc(C(N)=O)c(NC4CCC(O)CC4)c3)c2C1 (configuration not stated) [SNX-2112]
-6.48

Quickly give me recorded AC50 for growth inhibition (log10 M) for COc1cc(N2CCC(C(N)=O)CC2)ccc1Nc1nc(N)c(Cl)c(Nc2ccccc2[S+](=O)([O-])C(C)C)n1
-6.03

Reference source for all entries: the supplement of paper PMC5412046
